Readings of kinase still bound, per cent of control for the listed compounds
# target.of.assay: SYK (human) (UniProt P43405)
# test.details: KINOMEscan competition binding
# stated.conditions: compound 10.0 µM
measured.parameter: kinase still bound, per cent of control (%)

CN1C(=O)c2ccccc2N(C)c2nc(NS(=O)(=O)c3ccc(N)cc3)ncc21: 100
CN1C(=O)c2ccccc2N(C)c2nc(Nc3ccc(N4CCC(O)CC4)cc3)ncc21: 61
COc1cc(N2CCC(O)CC2)ccc1Nc1ncc2c(n1)N1CCc3cccc(c31)C(=O)N2C: 100
COc1cc(N2CCN(C)CC2)ccc1Nc1ncc2c(n1)Nc1ccccc1NC2=O: 91
COc1cc(N2CCN(C)CC2)ccc1Nc1ncc2c(n1)N(C)c1ccccc1N(C)C2=O: 99
CN1CCN(c2ccc(C(=O)Nc3ncc4c(n3)N(C)c3ccccc3C(=O)N4C)cc2)CC1: 100
COc1cc(N2CCN(C)CC2)ccc1Nc1ncc2c(n1)N(C)c1sccc1C(=O)N2C: 100
O=C1NC(=O)/C(=C/c2c[nH]c(=O)c(-c3ccc(N4CCNCC4)nc3)c2)S1: 100

Where do the numbers come from? From the kinase profiling compilation of Christmann-Franck et al. (2016).
